- Test system: MS2 coat protein
- procedureSummary: apparent KD of MS2 coat protein; higher = weaker reporter binding
- appliedConditions: Eterna round: R107; input ligand: arginine 13.2 mM
Below, each entry is listed alongside its reported apparent KD of MS2 coat protein.
readoutKind: apparent KD of MS2 coat protein (nM)

{"sequenceContent": "ACAUGAGGAUCACCCAUGUAUGACUAUCCUCGAGGACCGGUACGGCCGCCACUCGAACGAGUGGCUCGCGAGUGCGCACUCGCGA [5' end]", "recordedNumber": 11.7}
{"sequenceContent": "CAUUAAGUAACUGAUACCAGUGUACUGACAUGAGGAUCACCCAUGUUGGGUUUUGUUGUACACCCUUGGCAGCAGAAUCUUAAUG [AstrosExyTheB#3]", "recordedNumber": 44.7}
{"sequenceContent": "AUUUGGCGUAGUGUUGCUCGUGGGAUAAAACGAGGACCGGUACGGCCGCCACUCGAUGAUUAACAUGAGGAUCACCCAUGUAAAU [theeternabot_exclusion_MS2_Trp_A_22]", "recordedNumber": 17.5}

---

- Tested on: MS2 coat protein
- procedureSummary: apparent KD of MS2 coat protein; designed switch direction (-1 OFF switch, 1 ON switch): -1; higher = weaker reporter binding
- appliedConditions: input ligand: none

{"sequenceContent": "UACAUGAGGAUCACCCAUGUUUUGUCGUGUAUGGUAUUUAUCUAGGAUAUCAAUUUAUUUAGUUAUGAGAAGGAGAAUAUUAAU [JMF's solution 22] (Eterna round: R96, puzzle: Exclusion NG 3)", "studyTarget": "MS2 coat protein", "unitString": "nM", "apparent KD of MS2 coat protein": 37.9}
{"sequenceContent": "AAUCCUAGCGUAAGGAUAUCAAAACUAUCCCGUUAUGAGAAGGUACAUGAGGAUCACCCAUGUUAAUGGGAUAA [BmEX4 A.19] (Eterna round: R97, puzzle: Brourd's mod of Exclusion 4)", "studyTarget": "MS2 coat protein", "unitString": "nM", "apparent KD of MS2 coat protein": 19.3}
{"sequenceContent": "UCUGGUCGAGGAUAUAUAUGACGUGCUUCGGCACGAAGGUCACAUGAGGAUCACCCAUGUAGAAGGCGACCAGA [E2/9-A3] (Eterna round: R97, puzzle: Exclusion 2)", "studyTarget": "MS2 coat protein", "unitString": "nM", "apparent KD of MS2 coat protein": 52.1}
{"sequenceContent": "AAUUAACUAGGAUAUACUUGAGGAUCACCCAAGUGGGCUCCACCUGCUUGGCUCCCAGGUAGAAGGAGUAUACA [Tioner] (Eterna round: R97, puzzle: Exclusion 3)", "studyTarget": "MS2 coat protein", "unitString": "nM", "apparent KD of MS2 coat protein": 538}
{"sequenceContent": "CUAUCUUGCAAGGAUAUGCAAUUUAUUAUUUAUGCAGAAGGUGCUACAUGAGGAUCACCCAUGUUUCUGGGUUU [JR_E6_Sub046] (Eterna round: R96, puzzle: Exclusion 6)", "studyTarget": "MS2 coat protein", "unitString": "nM", "apparent KD of MS2 coat protein": 120}
{"sequenceContent": "UUAGAUAGGUCAGGAUAUCGAUGAUUGAAUUGUAUGAUUUACAUGAGGAUCACCCAUGUUUUGUACGAGAAGGGACGUUAGUUU [JR_ExcNG2_Sub019] (Eterna round: R96, puzzle: Exclusion NG 2)", "studyTarget": "MS2 coat protein", "unitString": "nM", "apparent KD of MS2 coat protein": 33.5}
{"sequenceContent": "CAGCUGUCAGGAUAUCGUGCAUACAACGAAAGUUCUAUGUGCGAGAAGGGACAUGAGGAUCACCCAUGUUAACG [Omei Ex4 A25] (Eterna round: R97, puzzle: Exclusion 4)", "studyTarget": "MS2 coat protein", "unitString": "nM", "apparent KD of MS2 coat protein": 46}
{"sequenceContent": "UAAUUAAAUGUAGGAUAUCUGCACGUUUAGUGCAGAGAAGGACAUGAGGAUCACCCAUGUAGAUCAAAUUAAAUUAAUUUAAUU [ENG1/5-D2] (Eterna round: R96, puzzle: Exclusion NG 1)", "studyTarget": "MS2 coat protein", "unitString": "nM", "apparent KD of MS2 coat protein": 33.8}
{"sequenceContent": "ACUUUUUGAGGAUAUACAUUUAUCCACAUGAGGAUCACCCAUGUACAAACAUGUAUUUGUGUAGAAGGCAGAAGAA [JR_Ex5_Sub069] (Eterna round: R97, puzzle: Exclusion 5)", "studyTarget": "MS2 coat protein", "unitString": "nM", "apparent KD of MS2 coat protein": 60.7}
{"sequenceContent": "CGCCCUCCGGUGAGGAUAUUGCCCACCAUGGUCGGCAAGAAGGCACUUGAGGAUCACCCAAGUAAAACAAAUAA [Beraus] (Eterna round: R97, puzzle: Brourd's mod of Exclusion 4)", "studyTarget": "MS2 coat protein", "unitString": "nM", "apparent KD of MS2 coat protein": 34.8}

---

- System: MS2 coat protein
- procedureSummary: apparent KD of MS2 coat protein; designed switch direction (-1 OFF switch, 1 ON switch): -1; higher = weaker reporter binding
- appliedConditions: input ligand: FMN 200 uM

{"sequenceContent": "UAGGCUUUAGGAUAUGCGUGUUGUAGUCGGCGAUGUGGUUCACAUGAGGAUCACCCAUGUAGAAGGAAAGUUUA [-17.2, -17 kcal, 26% A] (Eterna round: R97, puzzle: Exclusion 2)", "studyTarget": "MS2 coat protein", "apparent KD of MS2 coat protein / µM": 0.244}
{"sequenceContent": "ACCAAAGCAGUAGGAUAUACGCACAUGAGGAUCACCCAUGUAGCACGUCUCCAGACACCGAAUGCGUAGAAGGACUGCGCGCAA [Eternabot solution 3] (Eterna round: R96, puzzle: Exclusion NG 2)", "studyTarget": "MS2 coat protein", "apparent KD of MS2 coat protein / µM": 0.00786}
{"sequenceContent": "UAAGGUGGUACCAUGAACAUGAGGAUCACCCAUGUACCUUAGAAGGAUAUCGCGACGUGUACGCGCGAGAAGGUCUACAACGUA [Eternabot solution 35] (Eterna round: R96, puzzle: Exclusion NG 3)", "studyTarget": "MS2 coat protein", "apparent KD of MS2 coat protein / µM": 0.162}
{"sequenceContent": "UAGCAAUGAGAUGGGUUCCACAUGAGGAUCACCCAUGUCCAAGCUCAGAGCUCGUCUUAUUUGAGAUACUUCACUGU [Eternabot (L2) Solution 50] (Eterna round: R97, puzzle: Sensor, turn-off variant 1)", "studyTarget": "MS2 coat protein", "apparent KD of MS2 coat protein / µM": 0.0411}

---

Here the recorded apparent KD of K4 kissing-loop reporter is given for each entry.
- System: K4 kissing-loop RNA reporter
- procedureSummary: apparent KD of K4 kissing-loop reporter; higher = weaker reporter binding
- appliedConditions: Eterna round: R107; input ligand: tryptophan 2.4 mM

{"sequenceContent": "UGACUGGACUGAAGGAGCGCUAAACUCCUAGUGAUGUUAGGAAAACGAGACAAAGUCUCGAAGCAGGUAGGUCGCAGUCUAGUCU", "apparent KD of K4 kissing-loop reporter, nM": 169}
{"sequenceContent": "AGAGUUAUGCGAGGAUAUGCGGUUAGUACUCAAAGAGUACUAACGCAGAGUGAUGUUCUGUGAAACACAGAAGGCGCAUAACUCA [Omei KL FMN B SS B v1]", "apparent KD of K4 kissing-loop reporter, nM": 441}
{"sequenceContent": "GCUAUGGUAGGAAGGAGCGCGGACGAUAUUUAUCGAGUGAUGUUCGAUUAAUUAAUUUUAACGCAGGUAGGUCGCCUACUAUAGC [Arginine B K4 28]", "apparent KD of K4 kissing-loop reporter, nM": 106}
{"sequenceContent": "CAUUCAGUGAUGUUGGAAGGCGAGCGGGAUACCAGCGGAGACUCACGCCCUUGGCAGCCCAUAUAUCCCAGGUAGAUAAUAGUUC [Same State - Theophylline A (Freestyle 5)]", "apparent KD of K4 kissing-loop reporter, nM": 201}
{"sequenceContent": "AAACAUCACUGGGAGUGAUGUUCUCAGUGACGAGGACCGGUACGGCCGCCACUCGCGAGAGAUAUAGAUAAGUAAUGACAUCAUU [Excl Tryptophan A V4]", "apparent KD of K4 kissing-loop reporter, nM": 433}
{"sequenceContent": "GCCGUAGAUGGAAGGAGCGUGAAUGGCCUCUAUCCAAAGUGAUGUUUUGUUGAAGACUGUUCACAGGUAGGUCGCCAUCUACGGC", "apparent KD of K4 kissing-loop reporter, nM": 140}

---

- Test system: K4 kissing-loop RNA reporter;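 also: bound reporter read as fluorescence of individual clusters on recovered sequencing chips by microscopy, with normalized cluster intensities fitted with a binding model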
- procedureSummary: apparent KD of K4 kissing-loop reporter; higher = weaker reporter binding
- appliedConditions: Eterna round: R107; input ligand: none
Below: a set of entries, each annotated with reported apparent KD of K4 kissing-loop reporter.
readoutKind: apparent KD of K4 kissing-loop reporter (nM)

{"sequenceContent": "AGACCACAAAGUGGUCAGUGUUCGCGGCAGCGAGGACCGGUACGGCCGCCACUCGCGAGUGAUGUUCGCGAGAGCCGCGAACACA [Omei KL Tryp A Exc A v8]", "unitString": "nM", "recordedNumber": 82.6}
{"sequenceContent": "UGUGGAGGAUAUGAUACCAGCAGUGAGAGAGAGGAAGUAUAGUGAUGUUAUAUGAGAGAAUGCCCUUGGCAGCGUGUGUAGUAGG [SSTheophylB.J]", "unitString": "nM", "recordedNumber": 200}
{"sequenceContent": "UACAAACGUAGUGAUGUUACGUACUCUGAUACCAGACAACUCUAAGUCCCUUGGCAGCAGUCAUUUUGCUUAUUAUUUUCUCAAA [JR_ExcTheophyA_Sub018]", "unitString": "nM", "recordedNumber": 92}
{"sequenceContent": "UGAUACCAGACUGAUACCAGCCAGUGAUGUUGGCUAAUCCAAGAAGGAGUCAAAGACUCCGGCCCUUGGCAGCAGUCUGGUAUCU [TheoBX 3 #SwitchBubble #StaticStem]", "unitString": "nM", "recordedNumber": 111}
{"sequenceContent": "CGGCGUGCCUUAUCCUCAUCUCUGACUCAACGAGGACCGGUACGGCCGCCACUCGGAAGAGGCAGUGAUGUUGCCUACGCCGGUG [Oronat]", "unitString": "nM", "recordedNumber": 77.3}
{"sequenceContent": "AAAGAUCUUCUAGAAACUAGAAGAUCAAGAGAGGAUAUCCGAAUUCGGAGAAGGCUCACUAAGUGAUGUUUGGAGCCAAUGGCAA [AK2 SS FMN A]", "unitString": "nM", "recordedNumber": 1210}
